Every entry's value here was drawn from patent US20260297060A1.

# protocol.summary: Pharmacokinetics in female BALB/c nude mice bearing A375 xenografts, 1 day dosing (PK and PD study): plasma, tumor and brain concentrations, AUC
# Assay type: in vivo
# condition: mouse, brain, po, 5 mg/kg, 5 mg/kg p.o. BID × 1 day; post 2nd dose; 1 h; read-out: Mean Concentration in Brain ± SEM
quantity.name: concentration at 1 h (ng/g)
Lab book: enter the figure in ng/g, no units written.

Req: Given CCN(C)S(=O)(=O)Nc1ccc(F)c(Oc2ccc3ncn(C4CC5(CCN(C6CC7(C6)CN(c6cc8c(cc6F)c(N6CCC(=O)NC6=O)nn8C)C7)CC5)C4)c(=O)c3c2)c1C#N (stereo not shown) [Compound 141] , respond with its concentration at 1 h.
Resp: 126
